Origin of measurements: patent US10316371B2

Quick reference: MIC of the listed items.
- Test system: SA 33591 (Staphylococcus aureus, Methicillin Resistant (ATCC 33591))
- testProtocol: MIC
- Assay type: cell-based
- protocolConditions: ATCC33591, SA 33591, read-out: MIC
Give a bare numeral; the unit µg/mL is implied.

These recorded examples may help you get a feel for the data.
molecule	MIC (µg/mL)
Cc1ccc2nc(-c3ccc(NC(=O)CN4CCN(CCO)CC4)cc3)sc2c1	32
O=C(O)C(c1ccccc1)N1C(=O)C(=Cc2c[nH]c3ccccc23)SC1=S (stereo not shown)	64
CCN1C(=O)C2Cc3c([nH]c4ccccc34)CN2C1=S (stereo not shown)	128

Exercise: Given Brc1ccc(-c2nc(N3CCNCC3)c3ccccc3n2)cc1 , state its recorded MIC.
Solution: 8

Exercise: So what does the record say about MIC for Oc1ccccc1N=Cc1c(O)c(Br)cc2oc3c(c12)CCCC3 ?
Solution: 32
